// data source = patent US20230265151A1

target: human glucagon receptor (human, UniProt P47871 26-477); experiment: cell-based or functional assay
Sequence (P47871 26-477): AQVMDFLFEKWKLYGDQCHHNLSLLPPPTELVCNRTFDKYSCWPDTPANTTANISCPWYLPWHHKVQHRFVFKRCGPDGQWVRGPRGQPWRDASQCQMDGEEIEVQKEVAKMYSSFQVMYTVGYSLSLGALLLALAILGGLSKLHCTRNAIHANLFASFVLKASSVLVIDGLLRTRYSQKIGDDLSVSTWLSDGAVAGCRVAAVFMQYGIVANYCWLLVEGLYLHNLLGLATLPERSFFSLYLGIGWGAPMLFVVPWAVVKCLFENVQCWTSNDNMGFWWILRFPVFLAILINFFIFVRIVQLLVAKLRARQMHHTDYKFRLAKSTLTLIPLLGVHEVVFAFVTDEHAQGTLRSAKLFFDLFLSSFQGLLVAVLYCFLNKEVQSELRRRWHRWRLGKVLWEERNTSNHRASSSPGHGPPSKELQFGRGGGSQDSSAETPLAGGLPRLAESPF
*1 amine or outer side, *2 acyl side, *3 side chain or, on linkers, in order; H or OH if unused. Where no end group is shown, it is not given here. Side-chain parts run from the residue outwards. [ ]: non-standard residue; d: D form. The star is where a group is joined. Decanoyl(10-(4-HOOC-PhO)) = O=C(O)c1ccc(OCCCCCCCCCC(=O)*)cc1; αMePhe(2-F) = C[C@](N)(Cc1ccccc1F)C(=O)O; γGlu = O=C(O)[C@H](CCC(=O)[*:2])N[*:1]; αMeY = C[C@](N)(Cc1ccc(O)cc1)C(=O)O; αMeL = CC(C)C[C@](C)(N)C(=O)O; Orn = NCCC[C@H](N)C(=O)O; AEEA = NCCOCCOCC(=O)O; Aib = CC(C)(N)C(=O)O
Provide the reported cAMP EC50 (1.0% HSA) of each item.

[Q] I am curious: what cAMP EC50 (1.0% HSA) value has been reported for YXEGTXTSDYXIXLDXQAQXXFIKXLIKGGPSSGAPPPS (Y-Aib-EGT-αMeF(2F)-TSDY-Aib-I-αMeL-LD-Orn-QAQ-Aib-Orn-FIK((2-[2-(2-Amino-ethoxy)-ethoxy]-acetyl)3-(γ-Glu)-CO-(CH2)12-CO2H)-αMeY-LIK((2-[2-(2-Amino-ethoxy)-ethoxy]-acetyl)3-(γ-Glu)-CO-(CH2)12-CO2H)GGPSSGAPPPS-NH2) [Example 479] ?
[A] > 9.95 µM

[Q] I am curious: what cAMP EC50 (1.0% HSA) value has been reported for YXEGTXTSDKXIXLDXKAQXEXIXXLIEGGPSSGAPPPS (Y-Aib-EGT-αMeF(2F)-TSDK((2-[2-(2-Amino-ethoxy)-ethoxy]-acetyl)3-(γ-Glu)-CO-(CH2)10-CH3)-Aib-I-αMeL-LD-Orn-K((2-[2-(2-Amino-ethoxy)-ethoxy]-acetyl)3-(γ-Glu)-CO-(CH2)10-CH3)AQ-Aib-E-αMeF-I-(D-Glu)-αMeY-LIEGGPSSGAPPPS-NH2) [Example 436] ?
[A] > 9.95 µM

[Q] I am curious: what cAMP EC50 (1.0% HSA) value has been reported for YXEGTXTSDXXIXLDXQAQXKFIXXLIKGGPSSGAPPPS (Y-Aib-EGT-αMeF(2F)-TSD-4Pal-Aib-I-αMeL-LD-Orn-QAQ-Aib-K((2-[2-(2-Amino-ethoxy)-ethoxy]-acetyl)2-(γ-Glu)-CO-(CH2)12-CO2H)FI-(D-Glu)-αMeY-LIK((2-[2-(2-Amino-ethoxy)-ethoxy]-acetyl)2-(γ-Glu)-CO-(CH2)12-CO2H)GGPSSGAPPPS-NH2) [Example 488] ?
[A] > 9.95 µM

[Q] I am curious: what cAMP EC50 (1.0% HSA) value has been reported for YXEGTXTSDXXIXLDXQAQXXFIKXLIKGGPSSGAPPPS (Y-Aib-EGT-αMeF(2F)-TSD-4Pal-Aib-I-αMeL-LD-Orn-QAQ-Aib-4Pal-FIK((2-[2-(2-Amino-ethoxy)-ethoxy]-acetyl)2-(γ-Glu)-CO-(CH2)12-CO2H)-αMeY-LIK((2-[2-(2-Amino-ethoxy)-ethoxy]-acetyl)2-(γ-Glu)-CO-(CH2)12-CO2H)GGPSSGAPPPS-NH2) [Example 444] ?
[A] > 9.95 µM

[Q] I am curious: what cAMP EC50 (1.0% HSA) value has been reported for YXEGTXTSDKXIXLDXKAQXEFIXXLIEGGPSSGAPPPS (Y-Aib-EGT-αMeF(2F)-TSDK((2-[2-(2-Amino-ethoxy)-ethoxy]-acetyl)3-(γ-Glu)-CO-(CH2)10-CH3)-Aib-I-αMeL-LD-Orn-K((2-[2-(2-Amino-ethoxy)-ethoxy]-acetyl)3-(γ-Glu)-CO-(CH2)10-CH3)AQ-Aib-EFI-(D-Glu)-αMeY-LIEGGPSSGAPPPS-NH2) [Example 421] ?
[A] > 9.95 µM

[Q] I am curious: what cAMP EC50 (1.0% HSA) value has been reported for Y[Aib]EGT[αMePhe(2-F)]TSDV[Aib]I[αMeL]LD[Orn]IAQ[Aib]K([AEEA-γGlu-Decanoyl(10-(4-HOOC-PhO))])FI[dE][αMeY]LIK([AEEA-γGlu-Decanoyl(10-(4-HOOC-PhO))])GGPSSGAPPPS-NH2 [Example 382] ?
[A] > 9.95 µM

[Q] I am curious: what cAMP EC50 (1.0% HSA) value has been reported for YXEGTXTSDXXGXLDXQAQXXFIKXLIKGGPSSGAPPPS (Y-Aib-EGT-αMeF(2F)-TSD-4Pal-Aib-G-αMeL-LD-Orn-QAQ-Aib-Orn-FIK((2-[2-(2-Amino-ethoxy)-ethoxy]-acetyl)2-(γ-Glu)-CO-(CH2)12-CO2H)-αMeY-LIK((2-[2-(2-Amino-ethoxy)-ethoxy]-acetyl)2-(γ-Glu)-CO-(CH2)12-CO2H)GGPSSGAPPPS-NH2) [Example 441] ?
[A] > 9.95 µM

[Q] I am curious: what cAMP EC50 (1.0% HSA) value has been reported for YXEGTXTSDXXIXLDXKAQXXFIXXLIKGGPSSGAPPPS (Y-Aib-EGT-αMeF(2F)-TSD-4Pal-Aib-I-αMeL-LD-Orn-K((2-[2-(2-Amino-ethoxy)-ethoxy]-acetyl)2-(γ-Glu)-CO-(CH2)10-CH3)AQ-Aib-4Pal-FI-(D-Glu)-αMeY-LIK((2-[2-(2-Amino-ethoxy)-ethoxy]-acetyl)2-(γ-Glu)-CO-(CH2)10-CH3)GGPSSGAPPPS-NH2) [Example 416] ?
[A] > 9.95 µM

[Q] I am curious: what cAMP EC50 (1.0% HSA) value has been reported for YXEGTXTSDXXIXLDXKAQXKXIXXLIEGGPSSGAPPPS (not fully specified; Y-Aib-EGT-αMeF(2F)-TSD-4Pal-Aib-I-αMeL-LD-Orn-K((2-[2-(2-Amino-ethoxy)-ethoxy]-acetyl)2-(γ Glu)-CO-(CH2)10H3)AQ-Aib-K((2-[2-(2-Amino-ethoxy)-ethoxy]-acetyl)2-(γGlu)-CO-(CH2)10C3)-αMeFI-(D-Glu)-αMeY-LIEGGPSSGAPPPS-NH2) [Example 430] ?
[A] > 9.95 µM

[Q] I am curious: what cAMP EC50 (1.0% HSA) value has been reported for YXEGTXTSDYXIXLDXIAQXXFIKXLIKGGPSSGAPPPS (Y-Aib-EGT-αMeF(2F)-TSDY-Aib-I-αMeL-LD-Orn-IAQ-Aib-Orn-FIK((2-[2-(2-Amino-ethoxy)-ethoxy]-acetyl)2-(γ-Glu)-(10-(4-carboxyphenoxy)decanoyl))-αMeY-LIK((2-[2-(2-Amino-ethoxy)-ethoxy]-acetyl)2-(γ-Glu)-(10-(4-carboxyphenoxy)decanoyl))GGPSSGAPPPS-NH2) [Example 355] ?
[A] > 9.95 µM

[Q] I am curious: what cAMP EC50 (1.0% HSA) value has been reported for YXEGTXTSDYXIXLDXKAQXEFIXXLIKGGPSSGAPPPS (Y-Aib-EGT-αMeF(2F)-TSDY-Aib-I-αMeL-LD-Orn-K((2-[2-(2-Amino-ethoxy)-ethoxy]-acetyl)-(γ-Glu)-(10-(4-carboxyphenoxy)decanoyl))AQ-Aib-EFI-(D-Glu)-αMeY-LIK((2-[2-(2-Amino-ethoxy)-ethoxy]-acetyl)-(γ-Glu)-(10-(4-carboxyphenoxy)decanoyl))GGPSSGAPPPS-NH2) [Example 373] ?
[A] > 9.95 µM

[Q] I am curious: what cAMP EC50 (1.0% HSA) value has been reported for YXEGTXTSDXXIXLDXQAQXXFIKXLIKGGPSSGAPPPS (Y-Aib-EGT-αMeF(2F)-TSD-4Pal-Aib-I-αMeL-LD-Orn-QAQ-Aib-Orn-FIK(PEG4-(γ-Glu)-(10-(4-carboxyphenoxy)decanoyl))-αMeY-LIK(PEG4-(γ-Glu)-(10-(4-carboxyphenoxy)decanoyl))GGPSSGAPPPS-NH2) [Example 461] ?
[A] > 10.1 µM
